Tested on: diaphorase
test: Formation of formazan dyes: only diaphorase and malate (TABLE 14)
Type: biochemical, Clostridium kluyveri
conditions-used: 0 h, mean of three experiments
assay-readout: Absorbance, formation of formazan dyes (Means)
Lab note: write the figure by itself, no unit.

Would you please look over these solved cases?
COc1cc([N+](=O)[O-])c(S(=O)(=O)[O-])cc1-n1nc(C(=O)Nc2ccccc2)n[n+]1-c1cc(S(=O)(=O)O)c([N+](=O)[O-])cc1OC    0.39
O=[N+]([O-])c1ccc(-[n+]2nc(-c3ccc(S(=O)(=O)[O-])cc3S(=O)(=O)[O-])nn2-c2ccc(I)cc2)cc1.[Na+]    0.20
COc1cc(-c2ccc(-[n+]3nc(-c4ccc(C(=O)N(CCS(=O)(=O)[O-])CCS(=O)(=O)[O-])cc4)nn3-c3nc4ccccc4s3)c(OC)c2)ccc1-[n+]1nc(-c2ccc(C(=O)N(CCS(=O)(=O)[O-])CCS(=O)(=O)[O-])cc2)nn1-c1nc2ccccc2s1.[Na+].[Na+]    0.09
COc1cc([N+](=O)[O-])ccc1-[n+]1nc(-c2ccc(S(=O)(=O)[O-])cc2S(=O)(=O)[O-])nn1-c1ccc([N+](=O)[O-])cc1.[Na+]    0.10

Recorded result, `Cc1nc(-[n+]2nc(-c3cccc(OCC(=O)O)c3)nn2-c2ccc(S(=O)(=O)[O-])cc2)sc1C` , Absorbance, formation of formazan dyes (Means): 0.16

* * *

Below, each entry is listed with its recorded Formation of formazan dyes, absorbance, Means 4 h.
System: Malate dehydrogenase and diaphorase
test: Formation of formazan dyes: Malate dehydrogenase and diaphorase, absence of malate (TABLE 9)
Assay type: biochemical, pig heart
conditions-used: Malate dehydrogenase and diaphorase, absence of malate; 4 h
Lab note: write the figure by itself, no unit.

Would you please look over these solved cases?
O=[N+]([O-])c1ccc(-[n+]2nc(-c3ccc(S(=O)(=O)[O-])cc3S(=O)(=O)[O-])nn2-c2ccc(I)cc2)cc1.[Na+] [WST-1]    1.47
COc1cc([N+](=O)[O-])c(S(=O)(=O)[O-])cc1-n1nc(C(=O)Nc2ccccc2)n[n+]1-c1cc(S(=O)(=O)O)c([N+](=O)[O-])cc1OC [XTT]    0.50
COc1cc(-c2ccc(-[n+]3nc(-c4ccc(C(=O)N(CCS(=O)(=O)[O-])CCS(=O)(=O)[O-])cc4)nn3-c3nc4ccccc4s3)c(OC)c2)ccc1-[n+]1nc(-c2ccc(C(=O)N(CCS(=O)(=O)[O-])CCS(=O)(=O)[O-])cc2)nn1-c1nc2ccccc2s1.[Na+].[Na+] [WST-5]    1.86
Cc1nc(-[n+]2nc(-c3cccc(OCC(=O)O)c3)nn2-c2ccc(S(=O)(=O)[O-])cc2)sc1C [MTS]    0.21

Turning now to a further molecule:
Recorded result, COc1cc([N+](=O)[O-])ccc1-[n+]1nc(-c2ccc(S(=O)(=O)[O-])cc2S(=O)(=O)[O-])nn1-c1ccc([N+](=O)[O-])cc1.[Na+] [WST-8] , Formation of formazan dyes, absorbance, Means 4 h: 2.41

* * *

Below, each entry is listed with its recorded Absorbance, formation of formazan dyes (Means).
System: diaphorase
test: Formation of formazan dyes: only diaphorase and malate (TABLE 14)
Assay type: biochemical, Clostridium kluyveri
conditions-used: 8 h, mean of three experiments
Lab note: write the figure by itself, no unit.

Would you please look over these solved cases?
COc1cc(-c2ccc(-[n+]3nc(-c4ccc(C(=O)N(CCS(=O)(=O)[O-])CCS(=O)(=O)[O-])cc4)nn3-c3nc4ccccc4s3)c(OC)c2)ccc1-[n+]1nc(-c2ccc(C(=O)N(CCS(=O)(=O)[O-])CCS(=O)(=O)[O-])cc2)nn1-c1nc2ccccc2s1.[Na+].[Na+]    0.26
COc1cc([N+](=O)[O-])c(S(=O)(=O)[O-])cc1-n1nc(C(=O)Nc2ccccc2)n[n+]1-c1cc(S(=O)(=O)O)c([N+](=O)[O-])cc1OC    0.63
COc1cc([N+](=O)[O-])ccc1-[n+]1nc(-c2ccc(S(=O)(=O)[O-])cc2S(=O)(=O)[O-])nn1-c1ccc([N+](=O)[O-])cc1.[Na+]    0.31
Cc1nc(-[n+]2nc(-c3cccc(OCC(=O)O)c3)nn2-c2ccc(S(=O)(=O)[O-])cc2)sc1C    0.68

Recorded result, `O=[N+]([O-])c1ccc(-[n+]2nc(-c3ccc(S(=O)(=O)[O-])cc3S(=O)(=O)[O-])nn2-c2ccc(I)cc2)cc1.[Na+]` , Absorbance, formation of formazan dyes (Means): 0.26

* * *

Tested on: diaphorase
test: Formation of formazan dyes: only diaphorase, not malate (TABLE 13)
Format: biochemical, Clostridium kluyveri
conditions-used: 0 h, mean of three experiments
Below, each entry is listed with its recorded Absorbance, formation of formazan dyes (Means).
Lab note: write the figure by itself, no unit.

Would you please look over these solved cases?
COc1cc([N+](=O)[O-])c(S(=O)(=O)[O-])cc1-n1nc(C(=O)Nc2ccccc2)n[n+]1-c1cc(S(=O)(=O)O)c([N+](=O)[O-])cc1OC    0.41
COc1cc(-c2ccc(-[n+]3nc(-c4ccc(C(=O)N(CCS(=O)(=O)[O-])CCS(=O)(=O)[O-])cc4)nn3-c3nc4ccccc4s3)c(OC)c2)ccc1-[n+]1nc(-c2ccc(C(=O)N(CCS(=O)(=O)[O-])CCS(=O)(=O)[O-])cc2)nn1-c1nc2ccccc2s1.[Na+].[Na+]    0.25
O=[N+]([O-])c1ccc(-[n+]2nc(-c3ccc(S(=O)(=O)[O-])cc3S(=O)(=O)[O-])nn2-c2ccc(I)cc2)cc1.[Na+]    0.41
Cc1nc(-[n+]2nc(-c3cccc(OCC(=O)O)c3)nn2-c2ccc(S(=O)(=O)[O-])cc2)sc1C    0.16

Recorded result, `COc1cc([N+](=O)[O-])ccc1-[n+]1nc(-c2ccc(S(=O)(=O)[O-])cc2S(=O)(=O)[O-])nn1-c1ccc([N+](=O)[O-])cc1.[Na+]` , Absorbance, formation of formazan dyes (Means): 0.22

* * *

Tested on: Malate dehydrogenase and diaphorase
test: Formation of formazan dyes: Malate dehydrogenase and diaphorase, absence of malate (TABLE 9)
Assay type: biochemical, pig heart
conditions-used: Malate dehydrogenase and diaphorase, absence of malate; 2 h
So basically: is Formation of formazan dyes, absorbance, Means 2 h under 2? Then yes (1). Not under? Then no (0).

Data request: Does the reported Formation of formazan dyes, absorbance, Means 2 h of COc1cc(-c2ccc(-[n+]3nc(-c4ccc(C(=O)N(CCS(=O)(=O)[O-])CCS(=O)(=O)[O-])cc4)nn3-c3nc4ccccc4s3)c(OC)c2)ccc1-[n+]1nc(-c2ccc(C(=O)N(CCS(=O)(=O)[O-])CCS(=O)(=O)[O-])cc2)nn1-c1nc2ccccc2s1.[Na+].[Na+] [WST-5] stay below 2?
Data returned: yes (1)

Data request: Does the reported Formation of formazan dyes, absorbance, Means 2 h of COc1cc([N+](=O)[O-])ccc1-[n+]1nc(-c2ccc(S(=O)(=O)[O-])cc2S(=O)(=O)[O-])nn1-c1ccc([N+](=O)[O-])cc1.[Na+] [WST-8] stay below 2?
Data returned: no (0)

Data request: Does the reported Formation of formazan dyes, absorbance, Means 2 h of COc1cc([N+](=O)[O-])c(S(=O)(=O)[O-])cc1-n1nc(C(=O)Nc2ccccc2)n[n+]1-c1cc(S(=O)(=O)O)c([N+](=O)[O-])cc1OC [XTT] stay below 2?
Data returned: yes (1)

Data request: Does the reported Formation of formazan dyes, absorbance, Means 2 h of Cc1nc(-[n+]2nc(-c3cccc(OCC(=O)O)c3)nn2-c2ccc(S(=O)(=O)[O-])cc2)sc1C [MTS] stay below 2?
Data returned: yes (1)

Data request: Does the reported Formation of formazan dyes, absorbance, Means 2 h of O=[N+]([O-])c1ccc(-[n+]2nc(-c3ccc(S(=O)(=O)[O-])cc3S(=O)(=O)[O-])nn2-c2ccc(I)cc2)cc1.[Na+] [WST-1] stay below 2?
Data returned: yes (1)

* * *

Test system: diaphorase
test: Formation of formazan dyes: only diaphorase, not malate (TABLE 13)
Format: biochemical, Clostridium kluyveri
conditions-used: 10 h, mean of three experiments
So basically: is Absorbance, formation of formazan dyes (Means) under 0.4? Then class 1. Not under? Then class 0.

Cc1nc(-[n+]2nc(-c3cccc(OCC(=O)O)c3)nn2-c2ccc(S(=O)(=O)[O-])cc2)sc1C [MTS]    class 1
COc1cc(-c2ccc(-[n+]3nc(-c4ccc(C(=O)N(CCS(=O)(=O)[O-])CCS(=O)(=O)[O-])cc4)nn3-c3nc4ccccc4s3)c(OC)c2)ccc1-[n+]1nc(-c2ccc(C(=O)N(CCS(=O)(=O)[O-])CCS(=O)(=O)[O-])cc2)nn1-c1nc2ccccc2s1.[Na+].[Na+] [WST-5]    class 1
COc1cc([N+](=O)[O-])ccc1-[n+]1nc(-c2ccc(S(=O)(=O)[O-])cc2S(=O)(=O)[O-])nn1-c1ccc([N+](=O)[O-])cc1.[Na+] [WST-8]    class 0
O=[N+]([O-])c1ccc(-[n+]2nc(-c3ccc(S(=O)(=O)[O-])cc3S(=O)(=O)[O-])nn2-c2ccc(I)cc2)cc1.[Na+] [WST-1]    class 0

# evaluate next
Data request: Does the reported Absorbance, formation of formazan dyes (Means) of COc1cc([N+](=O)[O-])c(S(=O)(=O)[O-])cc1-n1nc(C(=O)Nc2ccccc2)n[n+]1-c1cc(S(=O)(=O)O)c([N+](=O)[O-])cc1OC [XTT] stay below 0.4?
Data returned: class 0
